Provenance of the data: ChEMBL document CHEMBL4725358

Target: Putative P2Y purinoceptor 10 (Mus musculus, UniProt Q8BFU7)
Sequence (Q8BFU7 whole entry, the tested form may be a part): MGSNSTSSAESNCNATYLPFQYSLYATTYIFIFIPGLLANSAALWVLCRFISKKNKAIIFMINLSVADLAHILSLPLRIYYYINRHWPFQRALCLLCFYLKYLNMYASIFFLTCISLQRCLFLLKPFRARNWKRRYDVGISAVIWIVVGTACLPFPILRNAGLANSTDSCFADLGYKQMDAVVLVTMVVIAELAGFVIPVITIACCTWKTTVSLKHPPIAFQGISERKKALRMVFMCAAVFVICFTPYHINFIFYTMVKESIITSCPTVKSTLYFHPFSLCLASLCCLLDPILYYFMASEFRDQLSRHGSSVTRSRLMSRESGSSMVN
Test: Agonist activity at mouse P2Y10 expressed in HEK293 cells co-transfected with AP-TGFalpha/Galphaq/i1 assessed as induction of ectodomain shedding of membrane bound AP-TGFalpha after 1 hr by p-NPP substrate based microplate reader analysis
outcome_measure: EC50 (nM)

These solved cases illustrate the format of a correct answer.
compound=CCCCCCCC/C=C\CCCCCCCC(=O)OC[C@@H](O)COP(=O)(O)OC[C@H](N)C(=O)O unit_info=nM reported=20
compound=CCCCCCCCCCCOc1ccccc1CCC(=O)O[C@H]1COCC[C@@H]1OP(=O)(O)OC[C@H](N)C(=O)O unit_info=nM reported=150
compound=CCCCCCCC/C=C\CCCCCCCC(=O)OCCCCCOP(=O)(O)OC[C@H](N)C(=O)O unit_info=nM reported=240

[P] CCCCCCCC/C=C\CCCCCCCC(=O)OC[C@@H](C)OP(=O)(O)OC[C@H](N)C(=O)O
[Q] CCCCCCCC/C=C\CCCCCCCC(=O)O[C@H](C)COP(=O)(O)OC[C@H](N)C(=O)O
**Q:** Form: Entry with minimum EC50 (choose one): P / Q Answer by quoting the chosen item's label.
**A:** Q

[P] CCCCCCCCCCCOc1ccccc1CCC(=O)OC1COCC[C@H]1OP(=O)(O)OC[C@H](N)C(=O)O (single isomer, unassigned)
[Q] CCCCCCCC/C=C\CCCCCCCC(=O)OCCCCOP(=O)(O)OC[C@H](N)C(=O)O
**Q:** Form: Entry with minimum EC50 (choose one): P / Q Answer by quoting the chosen item's label.
**A:** P

----------
Molecular target: UniProt:Q9R1K6
Assay: Agonist activity at mouse GPR34 expressed in HEK293 cells co-transfected with AP-TGFalpha/Galphaq/i1 assessed as induction of ectodomain shedding of membrane bound AP-TGFalpha after 1 hr by p-NPP substrate based microplate reader analysis
Type: cell-based
Conditions: read-out: EC50
pEC50: −log10 of the molar value.
outcome_measure: pEC50

These solved cases illustrate the format of a correct answer.
molecule=CCCCCCCC/C=C\CCCCCCCC(=O)O[C@H](C)COP(=O)(O)OC[C@H](N)C(=O)O reported=6.60
molecule="CCCCCCCCCCCOc1ccccc1CCC(=O)OC1COCCC1OP(=O)(O)OC[C@H](N)C(=O)O (single isomer, unassigned)" reported=6.47
molecule=C[C@H](COC(=O)CCc1ccccc1OCc1cccc(Oc2ccccc2)c1)OP(=O)(O)OC[C@H](N)C(=O)O reported=8.05
molecule=CCCCCCCC/C=C\CCCCCCCC(=O)O[C@H](COC)COP(=O)(O)OC[C@H](N)C(=O)O reported=6.80

[a] CCCCCCCC/C=C\CCCCCCCC(=O)OC[C@@H](COCC)OP(=O)(O)OC[C@H](N)C(=O)O
[b] C[C@H](COP(=O)(O)OC[C@H](N)C(=O)O)OC(=O)CCc1ccccc1OCc1cccc(Oc2ccccc2)c1
**Q:** Between the entries labelled a and b , which has a larger pEC50 value on record? Answer by quoting the chosen item's label.
**A:** a
(a: 8.46, b: 8.20)

----------
Target: Probable G-protein coupled receptor 34 (Mus musculus)
Sequence (Q9R1K6 whole entry, the tested form may be a part): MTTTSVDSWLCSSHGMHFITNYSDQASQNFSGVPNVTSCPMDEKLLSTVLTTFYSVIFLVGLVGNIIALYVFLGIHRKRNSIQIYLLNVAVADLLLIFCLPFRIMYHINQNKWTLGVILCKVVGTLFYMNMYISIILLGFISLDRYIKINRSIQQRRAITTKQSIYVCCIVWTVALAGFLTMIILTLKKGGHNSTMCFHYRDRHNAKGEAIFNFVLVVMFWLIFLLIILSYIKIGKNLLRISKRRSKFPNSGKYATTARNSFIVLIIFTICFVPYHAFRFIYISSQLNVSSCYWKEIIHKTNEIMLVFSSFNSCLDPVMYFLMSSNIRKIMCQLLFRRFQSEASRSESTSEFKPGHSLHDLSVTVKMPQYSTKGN
Experiment: Agonist activity at mouse GPR34 expressed in HEK293 cells co-transfected with AP-TGFalpha/Galphaq/i1 assessed as induction of ectodomain shedding of membrane bound AP-TGFalpha after 1 hr by p-NPP substrate based microplate reader analysis relative to positive control
Format: cell-based
Conditions: filed as agonist
outcome_measure: fold change (FC)

These solved cases illustrate the format of a correct answer.
molecule=CCCCCCCC/C=C\CCCCCCCC(=O)OCCCCCOP(=O)(O)OC[C@H](N)C(=O)O target_or_test_system="Probable G-protein coupled receptor 34 (Mus musculus)" reported=0.076
molecule=CCCCCCCC/C=C\CCCCCCCC(=O)OC[C@H](C)OP(=O)(O)OC[C@H](N)C(=O)O target_or_test_system="Probable G-protein coupled receptor 34 (Mus musculus)" reported=0.56
molecule=CCCCCCCC/C=C\CCCCCCCC(=O)OC[C@@H](COC)OP(=O)(O)OC[C@H](N)C(=O)O target_or_test_system="Probable G-protein coupled receptor 34 (Mus musculus)" reported=12

[P] CCCCCCCC/C=C\CCCCCCCC(=O)O[C@H](COC)COP(=O)(O)OC[C@H](N)C(=O)O
[Q] COC[C@H](COC(=O)CCc1ccccc1OCc1cccc(Oc2ccccc2)c1)OP(=O)(O)OC[C@H](N)C(=O)O
**Q:** Form: Entry with minimum fold change (FC) (choose one): P / Q Answer by quoting the chosen item's label.
**A:** P
(P: 0.52, Q: 21)

[A] CCCCCCCCCCCOc1ccccc1CCC(=O)O[C@@H]1CCOC[C@@H]1OP(=O)(O)OC[C@H](N)C(=O)O
[B] CCCCCCCCCCCOc1ccccc1CCC(=O)OC1COCCC1OP(=O)(O)OC[C@H](N)C(=O)O (single isomer, unassigned)
[C] C[C@H](COP(=O)(O)OC[C@H](N)C(=O)O)OC(=O)CCc1ccccc1OCc1cccc(Oc2ccccc2)c1
**Q:** Output the entries ranked by fold change (FC) from maximum down to minimum. A ranking is expressed here by listing the labels in the requested order.
**A:** C, A, B
(C: 16, A: 0.61, B: 0.1)

----------
Molecular target: Probable G-protein coupled receptor 34 (Homo sapiens)
Sequence (Q9UPC5 whole entry, the tested form may be a part): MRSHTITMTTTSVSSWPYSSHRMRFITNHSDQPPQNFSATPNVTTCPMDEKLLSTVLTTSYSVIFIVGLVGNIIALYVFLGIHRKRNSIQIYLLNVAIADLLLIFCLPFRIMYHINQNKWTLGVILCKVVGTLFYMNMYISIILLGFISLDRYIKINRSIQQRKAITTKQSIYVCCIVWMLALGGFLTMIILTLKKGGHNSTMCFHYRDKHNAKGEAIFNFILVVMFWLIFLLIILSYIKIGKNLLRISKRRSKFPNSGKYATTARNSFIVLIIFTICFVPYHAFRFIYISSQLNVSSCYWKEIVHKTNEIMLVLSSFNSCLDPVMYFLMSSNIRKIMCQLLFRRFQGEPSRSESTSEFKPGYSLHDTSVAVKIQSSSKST
Assay: Agonist activity at human GPR34 expressed in HEK293 cells co-transfected with AP-TGFalpha/Galphaq/i1 assessed as induction of ectodomain shedding of membrane bound AP-TGFalpha after 1 hr by p-NPP substrate based microplate reader analysis
outcome_measure: EC50 (pM)
Write the value in pM as a bare number.

**Q:** Which EC50 is reported for this compound? CCCCCCCCCCCOc1ccccc1CCC(=O)O[C@@H]1CCOC[C@H]1OP(=O)(O)OC[C@H](N)C(=O)O
**A:** 750

----------
Target: UniProt B0S6P9
Sequence (B0S6P9 whole entry): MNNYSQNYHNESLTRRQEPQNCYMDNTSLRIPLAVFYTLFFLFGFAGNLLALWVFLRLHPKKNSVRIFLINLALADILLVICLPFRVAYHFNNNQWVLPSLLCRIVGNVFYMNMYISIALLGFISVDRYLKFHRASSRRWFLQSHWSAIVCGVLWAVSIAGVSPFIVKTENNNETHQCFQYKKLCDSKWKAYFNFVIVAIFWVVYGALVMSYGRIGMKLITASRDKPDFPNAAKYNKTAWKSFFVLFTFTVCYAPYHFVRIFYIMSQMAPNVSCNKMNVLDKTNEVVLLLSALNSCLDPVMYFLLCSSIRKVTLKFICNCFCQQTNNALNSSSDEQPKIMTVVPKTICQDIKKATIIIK
Experiment: Agonist activity at zebrafish GPR34 type b expressed in HEK293 cells co-transfected with AP-TGFalpha/Galphaq/i1 assessed as induction of ectodomain shedding of membrane bound AP-TGFalpha after 1 hr by p-NPP substrate based microplate reader analysis
outcome_measure: EC50 (nM)

chemical_structure=CCCCCCCC/C=C\CCCCCCCC(=O)OC[C@@H](O)COP(=O)(O)OC[C@H](N)C(=O)O outcome_measure=EC50 unit_info=nM reported=3.5

[P] CCOC[C@H](COC(=O)CCc1ccccc1OCc1cccc(Oc2ccccc2)c1)OP(=O)(O)OC[C@H](N)C(=O)O
[Q] CCCCCCCCCCCOc1ccccc1CCC(=O)O[C@@H]1CCOC[C@H]1OP(=O)(O)OC[C@H](N)C(=O)O
**Q:** Form: Entry with minimum EC50 (choose one): P / Q Answer by quoting the chosen item's label.
**A:** Q
(Q: 12 nM, P: 1200 nM)

----------
Molecular target: Probable G-protein coupled receptor 34 (Mus musculus)
Experiment: Agonist activity at mouse GPR34 expressed in HEK293 cells co-transfected with AP-TGFalpha/Galphaq/i1 assessed as induction of ectodomain shedding of membrane bound AP-TGFalpha after 1 hr by p-NPP substrate based microplate reader analysis
Format: cell-based
Details: read-out: EC50
outcome_measure: EC50 (µM)

chemical_structure=CCCCCCCCCCCOc1ccccc1CCC(=O)O[C@@H]1CCOC[C@@H]1OP(=O)(O)OC[C@H](N)C(=O)O reported=0.22

[1] CCCCCCCC/C=C\CCCCCCCC(=O)OC[C@@H](COC)OP(=O)(O)OC[C@H](N)C(=O)O
[2] CCCCCCCCCCCOc1ccccc1CCC(=O)OCCOP(=O)(O)OC[C@H](N)C(=O)O
[3] CCCCCCCC/C=C\CCCCCCCC(=O)OC[C@H](COC)OP(=O)(O)OC[C@H](N)C(=O)O
[4] CCCCCCCCCCCOc1ccccc1CCC(=O)O[C@@H]1CCOC[C@H]1OP(=O)(O)OC[C@H](N)C(=O)O
**Q:** Arrange the 4 entries by EC50 so the values rise. A ranking is expressed here by listing the labels in the requested order.
**A:** 4, 1, 2, 3
(4: 0.00083 µM, 1: 0.011 µM, 2: 0.33 µM, 3: 0.62 µM)
